Listed next: entries and their corresponding IC50.
Target: human Cat K (Homo sapiens (Human), UniProt P43235)
Sequence (P43235 115-329): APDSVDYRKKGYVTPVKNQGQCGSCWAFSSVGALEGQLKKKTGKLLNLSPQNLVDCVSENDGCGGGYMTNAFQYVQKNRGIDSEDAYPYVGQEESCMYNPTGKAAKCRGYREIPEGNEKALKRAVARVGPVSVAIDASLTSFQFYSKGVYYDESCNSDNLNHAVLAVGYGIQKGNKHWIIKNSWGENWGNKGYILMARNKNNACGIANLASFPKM
readout.name: IC50 (nM)

1) CC[C@H](NC(=O)[C@@H]1C[C@@H](S(=O)(=O)c2ccc(O[C@@H](C)C(F)(F)F)cc2Cl)CN1C(=O)C1(c2ccc(Cl)cc2)CC1)C(=O)C(=O)NC1CC1    212
2) CCC[C@H](NC(=O)[C@@H]1C[C@@H](S(=O)(=O)c2ccc(O[C@@H](C)C(F)(F)F)cc2Cl)CN1C(=O)C1(c2ccc(Cl)cc2)CC1)C(=O)C(=O)NC1CC1    251
3) CC[C@H](NC(=O)[C@@H]1C[C@@H](S(=O)(=O)c2ccc(Cl)cc2C)CN1C(=O)OC(C)(C)C)C(=O)C(=O)NC1CC1    9430
4) CCCCNC(=O)C(=O)[C@H](CCC)NC(=O)[C@@H]1C[C@@H](S(=O)(=O)c2ccccc2Cl)CN1C(=O)C1(c2ccc(Cl)cc2)CC1    24
5) CC[C@H](NC(=O)[C@@H]1C[C@@H](S(=O)(=O)c2ccccc2Cl)CN1C(=O)C1(c2ccc(Cl)cc2)CC1)C(=O)c1nc2ccccc2o1    360
6) CC[C@H](NC(=O)[C@@H]1C[C@@H](S(=O)(=O)c2ccccc2Cl)CN1C(=O)C1(c2ccc(I)cc2)CC1)C(=O)C(=O)NC1CC1    30.1

###

Measured IC50 (human Cathepsin S (Homo sapiens (Human), UniProt P25774))
readout.name: IC50 (nM)

1) CC[C@H](NC(=O)[C@@H]1C[C@@H](S(=O)(=O)c2ccccc2C(F)(F)F)CN1c1ccccc1[N+](=O)[O-])C(=O)c1nc2ccccc2o1    1.83
2) CC[C@H](NC(=O)[C@@H]1C[C@@H](S(=O)(=O)c2ccccc2C(F)(F)F)CN1c1ccccc1[N+](=O)[O-])C(=O)C(=O)NC1CC1    1
3) CCCC(C)NC(=O)C(=O)[C@H](CCC)NC(=O)[C@@H]1C[C@@H](S(=O)(=O)c2ccccc2Cl)CN1C(=O)C1(c2ccc(Cl)cc2)CC1 (stereo partly drawn)    1.02
4) CCC[C@H](NC(=O)[C@@H]1C[C@@H](S(=O)(=O)c2ccccc2C(F)(F)F)CN1C(=O)C1(c2ccc(Cl)cc2)CC1)C(=O)C(=O)NC1CC1    0.983
5) CC[C@H](NC(=O)[C@@H]1C[C@@H](S(=O)(=O)c2ccccc2Cl)CN1C(=O)C1(c2ncc(Br)cc2F)CC1)C(=O)C(=O)NC1CC1    2.98
6) CC[C@H](NC(=O)[C@@H]1C[C@@H](S(=O)(=O)c2ccc(O[C@@H](C)C(F)(F)F)cc2Cl)CN1C(=O)C1(c2ccc(Cl)cc2)CC1)C(=O)C(=O)NC1CC1    5.43

###

Molecular target: human Cathepsin S (Homo sapiens (Human))
pIC50: −log10 of the molar value.
readout.name: pIC50

1) CC[C@H](NC(=O)[C@@H]1C[C@@H](S(=O)(=O)c2ccccc2Cl)CN1C(=O)C1(c2ccc(Cl)cc2)CC1)C(=O)C(=O)NCc1cccc2ccccc12 [Example 52]    8.71
2) CCC[C@H](NC(=O)[C@@H]1C[C@@H](S(=O)(=O)c2ccccc2Cl)CN1C(=O)C1(c2ccc(Br)cc2)CC1)C(=O)C(=O)NC1CC1 [Example 16]    9.35
3) CC[C@H](NC(=O)[C@@H]1C[C@@H](S(=O)(=O)c2ccc(Br)cc2C(F)(F)F)CN1c1cc(C)nn1C1CCC1)C(=O)C(=O)NC1CC1 [Example 6]    9.01

###

Biological target: human Cat L (Homo sapiens (Human), UniProt P07711)
Sequence (P07711 114-333): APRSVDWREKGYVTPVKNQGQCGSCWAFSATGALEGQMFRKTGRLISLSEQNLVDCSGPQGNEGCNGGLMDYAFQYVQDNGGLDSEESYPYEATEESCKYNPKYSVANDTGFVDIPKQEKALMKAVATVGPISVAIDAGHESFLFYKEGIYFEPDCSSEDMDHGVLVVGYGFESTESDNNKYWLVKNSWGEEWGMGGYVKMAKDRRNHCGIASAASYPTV
Assay: Cathepsin enzyme inhibition assay (fluorogenic peptide substrate), Cat L
Format: biochemical
Settings: enzyme 1 nM, substrate Z-Val-Val-Arg-AMC 20 μM, pH 6.5
readout.name: log10 of IC50 (log10 of the value in nM)

1. CCC[C@H](NC(=O)[C@@H]1C[C@@H](S(=O)(=O)c2ccccc2Cl)CN1C(=O)C1(c2ncc(Cl)cc2F)CC1)C(=O)C(=O)NCc1ccccc1    0.78
2. CC[C@H](NC(=O)[C@@H]1C[C@@H](S(=O)(=O)c2ccc(OCC(F)(F)F)cc2C(F)(F)F)CN1C(=O)C1(c2ccc(Cl)cc2)CC1)C(=O)C(=O)NC1CC1    1.80
3. O=C(NC1CC1)C(=O)C1(NC(=O)[C@@H]2C[C@@H](S(=O)(=O)c3ccccc3Cl)CN2C(=O)C2(c3ccc(Cl)cc3)CC2)CC1    3.83
4. CCC[C@H](NC(=O)[C@@H]1C[C@@H](S(=O)(=O)c2ccccc2Cl)CN1C(=O)C1(c2ccc(Cl)cc2)CC1)C(=O)C(=O)NCc1ccccc1    0.99
5. CC[C@H](NC(=O)[C@@H]1C[C@@H](S(=O)(=O)c2ccc(OCC(F)(F)F)cc2Cl)CN1C(=O)C1(c2ncc(Cl)cc2F)CC1)C(=O)C(=O)NC1CC1    1.74
6. CC(C)[C@H](NC(=O)[C@@H]1C[C@@H](S(=O)(=O)c2ccccc2Cl)CN1C(=O)C1(c2ncc(Cl)cc2F)CC1)C(=O)C(=O)NC1CC1    -0.05

###

Biological target: human Cathepsin S (Homo sapiens (Human), UniProt P25774)
Sequence (P25774 115-331): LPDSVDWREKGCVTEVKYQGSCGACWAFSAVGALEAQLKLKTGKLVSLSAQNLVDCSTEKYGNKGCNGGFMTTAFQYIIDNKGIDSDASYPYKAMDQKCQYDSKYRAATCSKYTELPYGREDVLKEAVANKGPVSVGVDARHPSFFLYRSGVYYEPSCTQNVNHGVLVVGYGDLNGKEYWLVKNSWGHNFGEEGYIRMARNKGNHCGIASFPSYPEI
IC50 under 0.7 nM gets criterion met, anything at or over 0.7 nM gets criterion not met.

1) CC[C@H](NC(=O)[C@@H]1C[C@@H](S(=O)(=O)c2ccccc2Cl)CN1C(=O)C1(c2ccc(Br)cc2F)CC1)C(=O)C(=O)NC1CC1    criterion met
2) CC[C@H](NC(=O)[C@@H]1C[C@@H](S(=O)(=O)c2ccccc2Cl)CN1C(=O)C1(c2ccc(Cl)cc2)CC1)C(=O)C(=O)NC1CCOCC1    criterion met
3) CC[C@H](NC(=O)[C@@H]1C[C@@H](S(=O)(=O)c2ccccc2C(F)(F)F)CN1C(=O)C1(c2ncc(Cl)cc2F)CC1)C(=O)C(=O)NC1CC1    criterion met
4) CC[C@H](NC(=O)[C@@H]1C[C@@H](S(=O)(=O)c2ccc(OCC(F)(F)F)cc2C(F)(F)F)CN1C(=O)C1(c2ccc(Cl)cc2)CC1)C(=O)C(=O)NC1CC1    criterion not met
5) CCC[C@H](NC(=O)[C@@H]1C[C@@H](S(=O)(=O)c2ccccc2Cl)CN1C(=O)C1(c2ncc(Cl)cc2F)CC1)C(=O)C(=O)NCc1ccccc1    criterion not met
6) O=C(NC1CC1)C(=O)C1(NC(=O)[C@@H]2C[C@@H](S(=O)(=O)c3ccccc3Cl)CN2C(=O)C2(c3ccc(Cl)cc3)CC2)CC1    criterion not met

###

Listed next: entries and their corresponding IC50.
Target: human Cat K (Homo sapiens (Human))
readout.name: IC50

1. CC[C@H](NC(=O)[C@@H]1C[C@@H](S(=O)(=O)c2ccccc2Cl)CN1C(=O)C1(c2ccc(Cl)cc2)CC1)C(=O)C(=O)NCc1cccc2ccccc12 [Example 52]    317 nM
2. CC[C@H](NC(=O)[C@@H]1C[C@@H](S(=O)(=O)c2ccccc2C(F)(F)F)CN1C(=O)C1(c2ccc(Cl)cc2)CC1)C(=O)C(=O)NC1CC1 [Example 21]    406 nM
3. CCC[C@H](NC(=O)[C@@H]1C[C@@H](S(=O)(=O)c2ccc(F)cc2Cl)CN1C(=O)C1(c2ccc(Cl)cc2)CC1)C(=O)C(=O)NC1CC1 [Example 48]    35 nM
4. CC[C@H](NC(=O)[C@@H]1C[C@@H](S(=O)(=O)c2ccccc2Cl)CN1C(=O)C1(c2ccc(Cl)cc2)CC1)C(=O)C(=O)NCc1ccccc1 [Example 33]    52.9 nM
5. CCC[C@H](NC(=O)[C@@H]1C[C@@H](S(=O)(=O)c2ccccc2Cl)CN1C(=O)C1(c2ccc(Cl)cc2)CC1)C(=O)C(=O)NC1CC1 [Example 9]    19.6 nM
6. CCC[C@H](NC(=O)[C@@H]1C[C@@H](S(=O)(=O)c2ccccc2Cl)CN1C(=O)C1(c2ccc(Cl)cc2)CC1)C(=O)C(=O)NC(C)C [Example 41]    152 nM
7. CC[C@H](NC(=O)[C@@H]1C[C@@H](S(=O)(=O)c2ccccc2Cl)CN1C(=O)C1(c2ccc(Cl)cc2)CC1)C(=O)C(=O)NC1CC1 [Example 8]    27.6 nM
8. CCC[C@H](NC(=O)[C@@H]1C[C@@H](S(=O)(=O)c2ccccc2Cl)CN1C(=O)C1(c2ccc(Cl)cc2)CC1)C(=O)C(=O)NCC [Example 44]    91.8 nM
9. C[C@H](NC(=O)[C@@H]1C[C@@H](S(=O)(=O)c2ccccc2Cl)CN1C(=O)C1(c2ccc(Cl)cc2)CC1)C(=O)C(=O)NC1CC1 [Example 34]    444 nM
10. CCC[C@H](NC(=O)[C@@H]1C[C@@H](S(=O)(=O)c2ccccc2Cl)CN1C(=O)C1(c2ccc(Cl)cc2)CC1)C(=O)C(=O)N(C)C1CC1 [Example 47]    998 nM
11. CC(C)(NC(=O)[C@@H]1C[C@@H](S(=O)(=O)c2ccccc2Cl)CN1C(=O)C1(c2ccc(Cl)cc2)CC1)C(=O)C(=O)NC1CC1 [Example 26]    25000 nM
12. CC[C@H](NC(=O)[C@@H]1C[C@@H](S(=O)(=O)c2ccccc2Cl)CN1C(=O)C1(c2ccc(Cl)cc2)CC1)C(=O)C(=O)NCCc1ccc2ccccc2c1 [Example 51]    159 nM
